Molecular target: T1, GIP Receptor (Homo sapiens, UniProt P48546)
T1 construct: host or cells: HEK293T
T1 sequence (P48546 22-466): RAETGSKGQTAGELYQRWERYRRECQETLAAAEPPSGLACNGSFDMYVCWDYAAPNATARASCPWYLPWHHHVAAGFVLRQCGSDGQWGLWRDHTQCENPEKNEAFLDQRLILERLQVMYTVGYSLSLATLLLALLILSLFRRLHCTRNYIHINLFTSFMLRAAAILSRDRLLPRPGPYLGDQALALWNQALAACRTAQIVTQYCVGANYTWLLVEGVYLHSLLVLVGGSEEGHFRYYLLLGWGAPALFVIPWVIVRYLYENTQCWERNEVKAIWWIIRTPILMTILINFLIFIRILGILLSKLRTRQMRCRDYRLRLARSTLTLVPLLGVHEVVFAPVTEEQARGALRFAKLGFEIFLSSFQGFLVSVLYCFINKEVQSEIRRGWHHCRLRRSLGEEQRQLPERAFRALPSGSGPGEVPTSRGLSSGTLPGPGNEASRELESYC
Assay: GIP receptor-mediated bioluminescence in HEK293T cells with chimeric promiscuous G protein (FIG. 5, Table II)
Type: cell-based
Settings: signal induced by maximal GIP (1 μM) as percentage of signal induced by Triton X-100 with 1 mM Ca^2+
measured-attribute: % GPCR/total (%)
Dear colleague, please return just the value in %, with no unit written.

Any idea what its % GPCR/total is? The molecule is Mt-aequorin: Mitochondrial Wild-type Aequorin (mt-Aequorin), SEQ ID NO:6 (protein, listed as Aequorea victoria) MSVLTPLLLRGLTGSARRLPVPRAKIHSLPPEGKLTSDFDNPRWIGRHKHMFNFLDVNHNGKISLDEMVYKASDIVINNLGATPEQAKRHKDAVEAFFGGAGMKYGVETDWPAYIEGWKKLATDELEKYAKNEPTLIRIWGDALFDIVDKDQNGAITLDEWKAYTKAAGIIQSSEDCEETFRVCDIDESGQLDVDEMTRQHLGFWYTMDPACEKLYGGAVP
23.9

Any idea what its % GPCR/total is? The molecule is Mt-clytin K168T: Mitochondrial K168T modified Clytin, SEQ ID NO:24 (protein) MSVLTPLLLRGLTGSARRLPVPRAKIHSLPPEGKLRPNFDNPKWVNRHKFMFNFLDINGDGKITLDEIVSKASDDICAKLGATPEQTKRHQDAVEAFFKKIGMDYGKEVEFPAFVDGWKELANYDLKLWSQNKKSLIRDWGEAVFDIFDKDGSGSISLDEWKAYGRISGICSSDEDAEKTFKHCDLDNSGTLDVDEMTRQHLGFWYTLDPNADGLYGNFVP
22
